Experiment: Selectivity index, ratio of IC50 for CHO cells to IC50 for chloroquine-resistant asexual blood stage of Plasmodium falciparum K1
Type: toxicity
Conditions: hamster, read-out: Ratio IC50
Property label: selectivity ratio

Worked cases, selectivity ratio given:
INSERT INTO measurements (smiles_structure, property_label, result) VALUES
  ('N#Cc1ccc2c(c1)nc(-c1ccccc1)n2CCCNc1ccnc2cc(Cl)ccc12', 'selectivity ratio', 217),
  ('FC(F)(F)c1ccc2c(c1)nc(-c1ccccc1)n2CCCNc1ccnc2cc(Cl)ccc12', 'selectivity ratio', 107),
  ('CS(=O)(=O)c1ccc2c(c1)nc(-c1ccccc1)n2CCCNc1ccnc2cc(Cl)ccc12', 'selectivity ratio', 22.4);

# input for lookup
Form field selectivity ratio, entry Clc1ccc2c(NCCCn3c(-c4ccccc4)nc4ccccc43)ccnc2c1 : 209

====

Assay: Selectivity index, ratio of IC50 for CHO cells to IC50 for chloroquine-sensitive asexual blood stage of Plasmodium falciparum NF54
Assay type: toxicity
Conditions: hamster, read-out: Ratio IC50
Property label: selectivity ratio
Numbers only.

Worked cases, selectivity ratio given:
INSERT INTO measurements (smiles_structure, property_label, result_number) VALUES
  ('N#Cc1ccc2c(c1)nc(-c1ccccc1)n2CCCNc1ccnc2cc(Cl)ccc12', 'selectivity ratio', 39.9),
  ('Clc1ccc2c(NCCCn3c(-c4ccccc4)nc4ccccc43)ccnc2c1', 'selectivity ratio', 7.57),
  ('CS(=O)(=O)c1ccc2c(c1)nc(-c1ccccc1)n2CCCNc1ccnc2cc(Cl)ccc12', 'selectivity ratio', 73.2);

Form field selectivity ratio, entry FC(F)(F)c1ccc2c(c1)nc(-c1ccccc1)n2CCCNc1ccnc2cc(Cl)ccc12 : 37.5

====

System: Mycobacterium tuberculosis
Experiment: Antimycobacterial activity against Mycobacterium tuberculosis H37Rv after 7 days in presence of middlebrook 7H9/ADC medium by microplate alamar blue assay
Format: functional
Conditions: 168 h
Property label: MIC90 (µM)
Answers are plain numbers, in µM.

INSERT INTO measurements (smiles_structure, result_number) VALUES
  ('Clc1ccc2c(NCCCn3c(-c4ccccc4)nc4ccccc43)ccnc2c1', 38.8),
  ('FC(F)(F)c1ccc2c(c1)nc(-c1ccccc1)n2CCCNc1ccnc2cc(Cl)ccc12', 89.1);

# input for lookup
Recorded MIC90 for CO[C@H]1/C=C/O[C@@]2(C)Oc3c(C)c(O)c4c(O)c(c(/C=N/N5CCN(C)CC5)c(O)c4c3C2=O)NC(=O)/C(C)=C\C=C\[C@H](C)[C@H](O)[C@@H](C)[C@@H](O)[C@@H](C)[C@H](OC(C)=O)[C@@H]1C on Mycobacterium tuberculosis was 0.0156

====

Test system: Plasmodium falciparum
Experiment: Antiplasmodial activity against chloroquine-sensitive asexual blood stage of Plasmodium falciparum NF54 by LDH assay
Assay type: functional, organism-based
Property label: pIC50
One number for each entry, as −log10 of the molar value.

Worked cases, pIC50 given:
INSERT INTO results (compound, result_number) VALUES
  ('N#Cc1ccc2c(c1)nc(-c1ccccc1)n2CCCNc1ccnc2cc(Cl)ccc12', 6.01),
  ('Clc1ccc2c(NCCCn3c(-c4ccccc4)nc4ccccc43)ccnc2c1', 5.26),
  ('FC(F)(F)c1ccc2c(c1)nc(-c1ccccc1)n2CCCNc1ccnc2cc(Cl)ccc12', 6.37);

Please go through the list and note pIC50 for each compound.
1. CS(=O)(=O)c1ccc2c(c1)nc(-c1ccccc1)n2CCCNc1ccnc2cc(Cl)ccc12
2. C[C@H]1[C@H](OC(=O)CCC(=O)O)O[C@@H]2O[C@@]3(C)CC[C@H]4[C@H](C)CC[C@@H]1[C@@]24OO3 [ARTESUNATE]
3. Cc1ccc2c(c1)nc(-c1ccccc1)n2CCCNc1ccnc2cc(Cl)ccc12

1: 6.25; 2: 8.01; 3: 6.11
